- Measured on: Protein deacetylase HDAC6 (Homo sapiens, UniProt Q9UBN7)
- Sequence (Q9UBN7 whole entry): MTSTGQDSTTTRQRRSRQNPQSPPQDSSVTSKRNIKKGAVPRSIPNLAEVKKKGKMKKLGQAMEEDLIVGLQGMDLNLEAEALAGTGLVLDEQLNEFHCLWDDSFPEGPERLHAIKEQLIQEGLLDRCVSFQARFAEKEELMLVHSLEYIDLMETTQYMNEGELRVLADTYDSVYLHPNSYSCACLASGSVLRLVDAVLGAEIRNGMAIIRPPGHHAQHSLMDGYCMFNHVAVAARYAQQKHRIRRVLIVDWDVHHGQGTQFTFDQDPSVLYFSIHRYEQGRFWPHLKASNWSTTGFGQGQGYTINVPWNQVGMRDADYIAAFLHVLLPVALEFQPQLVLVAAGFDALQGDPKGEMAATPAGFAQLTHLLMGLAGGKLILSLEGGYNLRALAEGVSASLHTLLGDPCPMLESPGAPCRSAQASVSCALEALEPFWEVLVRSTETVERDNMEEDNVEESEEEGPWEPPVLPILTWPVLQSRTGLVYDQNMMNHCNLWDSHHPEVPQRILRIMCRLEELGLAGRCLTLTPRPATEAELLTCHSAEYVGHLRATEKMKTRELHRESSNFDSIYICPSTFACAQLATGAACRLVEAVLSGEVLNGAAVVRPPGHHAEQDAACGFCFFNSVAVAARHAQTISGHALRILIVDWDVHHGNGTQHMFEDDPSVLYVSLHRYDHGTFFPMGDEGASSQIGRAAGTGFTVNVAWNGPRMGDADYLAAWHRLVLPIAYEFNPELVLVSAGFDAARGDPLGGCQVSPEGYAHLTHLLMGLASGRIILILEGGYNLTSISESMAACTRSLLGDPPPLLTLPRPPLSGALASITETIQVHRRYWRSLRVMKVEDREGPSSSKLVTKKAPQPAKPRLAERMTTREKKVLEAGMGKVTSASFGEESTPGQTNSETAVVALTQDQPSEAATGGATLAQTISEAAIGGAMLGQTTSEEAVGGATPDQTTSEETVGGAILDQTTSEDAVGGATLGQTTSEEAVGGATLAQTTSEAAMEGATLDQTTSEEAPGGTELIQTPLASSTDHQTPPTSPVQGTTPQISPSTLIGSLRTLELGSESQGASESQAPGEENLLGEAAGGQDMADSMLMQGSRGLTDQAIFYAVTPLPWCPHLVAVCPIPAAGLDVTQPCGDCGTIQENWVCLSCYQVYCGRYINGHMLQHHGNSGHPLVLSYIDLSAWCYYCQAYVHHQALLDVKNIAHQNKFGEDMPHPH
pIC50: −log10 of the molar value.
Reported metric: pIC50

# Chemical smiles, Measured on, Reported metric, Experimental result
records = [
    ("Nc1nc2ncc(CNc3ccc(C(=O)NCCCCCCCC(=O)NO)cc3)nc2c(=O)[nH]1", "Protein deacetylase HDAC6 (Homo sapiens, UniProt Q9UBN7)", "pIC50", 7.26),
    ("Nc1nc2ncc(CNc3ccc(C(=O)N[C@@H](CCC(=O)NCCCCCCC(=O)NO)C(=O)O)cc3)nc2c(=O)[nH]1", "Protein deacetylase HDAC6 (Homo sapiens, UniProt Q9UBN7)", "pIC50", 6.88),
]

a = Nc1nc2ncc(CNc3ccc(C(=O)N[C@@H](CCC(=O)NCCCC(=O)NO)C(=O)O)cc3)nc2c(=O)[nH]1
b = Nc1nc2ncc(CNc3ccc(C(=O)NCCCCCCC(=O)NO)cc3)nc2c(=O)[nH]1
Of the pair a and b , name the member with the lesser recorded pIC50. State your choice using its label.
a
(a: 5.09, b: 7.91)
